System: OVCAR-4
Assay: NCI tumour cell line growth inhibition, 48 h
Calls of active or inactive are those of the source. Cut-off read from the data, not from the text of the source: active = GI50 up to about 1.1 µM and inactive = higher.
Listed molecules paired with reported GI50

1. COC(=O)C(=O)C(C(=O)C(=O)Nc1ccc(C)cc1)c1nc2ccc(C(=O)c3ccccc3)cc2nc1O (configuration not stated) ... 49 µM (inactive)
2. CCOC(=O)c1nc2ccc(C(F)(F)F)cc2nc1Oc1ccc(C(=O)OC)cc1 ... 98.4 µM (inactive)

Reported GI50 for Cn1c(=O)oc2cc(C3CCC(=O)N3Cc3ccc(Cl)cc3)ccc21 (configuration not stated) : what is it?
> 100 µM (inactive)

Reported GI50 for CCOC(=O)/C(=C/c1ccco1)P(=O)(OCC)OCC : what is it?
> 100 µM (inactive)

----------
Tested on: SW-620
Assay: NCI tumour cell line growth inhibition, 48 h
The source made the active and inactive calls. No stated cut-off is given here; in the data, active = GI50 up to about 1.1 µM and inactive = higher.
Select the matching outcome among true (1) for active, false (0) for inactive

1. O=c1cc(N2CCOCC2)[nH]c(=O)n1-c1ccc(F)cc1 ... false (0)
2. COC(=O)[C@]1(C)CCC[C@]2(C)C3CC4OOC3(C=C4C(C)C)CCC21 (some centres not stated) ... false (0)
3. Nc1ccc(-c2nc3ccccc3s2)cc1 ... false (0)

Recorded call for Cc1c(CNc2ccc(C(=O)NC(CC(=O)O)C(=O)O)cc2)ccc2nc(N)nc(N)c12 (configuration not stated) ?
true (1)

Recorded call for c1ccc(CNc2ccc3[nH]c4cnccc4c3c2)cc1 ?
false (0)

Recorded call for [N-]=[N+]=N[C@H]1C[C@@H](CO)O[C@H]1n1cnc2c(N)ncnc21 ?
false (0)

Recorded call for C/C(=N\Nc1nc2ccccc2[nH]1)c1ccncn1 ?
true (1)

Recorded call for CCn1nc(C)c2c1C(=O)NCC(=O)N2 ?
false (0)

Recorded call for COC(=O)/C=C\C(C#N)(C#N)/N=C/c1ccc(Br)s1 ?
false (0)

Recorded call for Cc1cccc(NC(=O)Cc2nc3ccccc3s2)c1C ?
false (0)

Recorded call for CCN(CC)C(=O)N[C@@H](CC(C)C)C(=O)NC ?
false (0)

Recorded call for COc1ccc(CC2(Cc3ccc(OC)cc3)CCOC2=O)cc1 ?
false (0)

Recorded call for CCOC(=O)c1nc2ccc(C(F)(F)F)cc2nc1Oc1ccc(C(=O)OC)cc1 ?
false (0)

Recorded call for CCCC1NC(=O)C(CC(C)C)NC(=O)c2cccc(n2)C(=O)NC(CC(C)C)C(=O)NC(CCC)C(=O)NC(C(=O)OC)CCCCNC1=O (configuration not stated) ?
false (0)

Recorded call for O=C1C[C@@]23CCC4(CC2CCC[C@H]3O1)OCCO4 (some centres not stated) ?
false (0)

Recorded call for CC(=O)/C(=C\NC(=S)Nc1ccc(S(N)(=O)=O)cc1)C(=O)Nc1ccccc1C ?
false (0)

Recorded call for COC1OC(C(C)O)C2OC(C)(C)OC12 (configuration not stated) ?
false (0)

Recorded call for CC(CC(C)[C@H]1CCC2[C@H]3C(CC[C@@]21C)[C@@]1(C)CCC(O)C[C@H]1C[C@@H]3O)C(=O)O (some centres not stated) ?
false (0)

Recorded call for CCOP(=O)(OCC)C(C)(CC)N/C(N)=N/C#N (configuration not stated) ?
false (0)

Recorded call for Cc1ccc(Nc2ncnc3sc(SCc4ccccc4)nc23)cc1 ?
false (0)

Recorded call for COc1ccc(/C=C/C(=O)OC2CC34CCNC35CC(OC5(OC)C2OC)c2ccc(OC)c(O)c24)cc1O (configuration not stated) ?
false (0)

Recorded call for CN1CCCOC(c2ccc([N+](=O)[O-])cc2)O1 (configuration not stated) ?
false (0)
